TEST SUMMARY: activity coefficient (dimensionless); of the first substance listed, at infinite dilution; xn = mol fraction of the nth substance listed
SETUP CONDITIONS: 318.15 K; 101.33 kPa; Liquid; Chromatography; x1 = 0
ASSAY ENDPOINT: activity coefficient

CCCC(=O)OC [methyl butanoate] + CC[N+]1(C)CCOCC1.N#CN=C=[N-] = 9.27
CCCCCC [hexane] + CC[N+]1(C)CCOCC1.N#CN=C=[N-] = 482
CCCCCCC [heptane] + CC[N+]1(C)CCOCC1.N#CN=C=[N-] = 729
CCCCO [butan-1-ol] + CC[N+]1(C)CCOCC1.N#CN=C=[N-] = 3.08
C=CCCCCCC [oct-1-ene] + CC[N+]1(C)CCOCC1.N#CN=C=[N-] = 496
C=COC(C)=O [vinyl acetate] + CC[N+]1(C)CCOCC1.N#CN=C=[N-] = 4.22

A = C=Cc1ccccc1 [styrene] + CC[N+]1(C)CCOCC1.N#CN=C=[N-]
B = CC(C)(C)O [2-methylpropan-2-ol] + CC[N+]1(C)CCOCC1.N#CN=C=[N-]
Qu. Which gives the smaller activity coefficient number: A or B ? State your choice using its label.
Ans. B
